Consider the following variants and their measured aptazyme ON/OFF ratio readings.
B1: Pistol ribozyme (parent)
chain: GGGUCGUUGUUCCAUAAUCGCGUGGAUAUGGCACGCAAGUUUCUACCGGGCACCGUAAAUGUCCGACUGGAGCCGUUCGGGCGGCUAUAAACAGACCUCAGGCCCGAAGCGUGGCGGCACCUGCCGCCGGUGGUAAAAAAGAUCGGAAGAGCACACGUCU

variants of: B1; assay: aptazyme ON/OFF ratio, guanine; higher = stronger switching; co-transcriptional cleavage with and without guanine
// no unit string in output, number only

Worked examples, 3 variants total:
- MUTATION_NOTATION: "U7A U8A U10C U11A C12U"
  REPORTED_METRIC: "aptazyme ON/OFF ratio"
  OBSERVED: 1.14
- MUTATION_NOTATION: "U8C G9U U10A U11C C13G"
  REPORTED_METRIC: "aptazyme ON/OFF ratio"
  OBSERVED: 1.06
- MUTATION_NOTATION: "U8C G9U U10A U11G C12A C13U"
  REPORTED_METRIC: "aptazyme ON/OFF ratio"
  OBSERVED: 1.26

Ask | Output aptazyme ON/OFF ratio of U7G U8A U10C C13U
Reply | 1.49

Ask | Indicate the recorded aptazyme ON/OFF ratio value for this variant: U7G U10C U11C C12U C13A
Reply | 1.06

Ask | Note down aptazyme ON/OFF ratio recorded for U7A U8G U10A U11A C12A C13A
Reply | 1.34

Ask | Give a short answer stating reported aptazyme ON/OFF ratio for U7C U8A G9A U10C U11A C13G .
Reply | 1.08

Ask | Write down aptazyme ON/OFF ratio measured for item U7G G9C U10C C13G
Reply | 1.09

Ask | Look up and report measured aptazyme ON/OFF ratio for this entry: U7C U8C U11G C13G
Reply | 1.28

Ask | Provide measured aptazyme ON/OFF ratio value, entry: U7C U8G G9U U10A U11C C12G C13G
Reply | 1.27
